- Study Target: T1, human IL-6 (human, UniProt P05231 30-212)
- T1 construct: also called interleukin-6
- T1 sequence (P05231 30-212 limits assumed): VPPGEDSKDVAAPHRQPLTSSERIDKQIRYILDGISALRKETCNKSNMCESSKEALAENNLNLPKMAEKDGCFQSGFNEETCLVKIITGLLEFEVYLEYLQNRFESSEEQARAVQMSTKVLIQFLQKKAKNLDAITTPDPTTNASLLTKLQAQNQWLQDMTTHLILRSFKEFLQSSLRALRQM
- Test Details: SPR (Biacore T200), antibody from cell supernatant captured on Protein A, IL-6 flowed over, 37 C
Property Name: kon

Known kon results, listed for orientation:
[[record]]
binder = "anti-IL-6 antibody, heavy chain I51V, G66D / light chain WT (antibody, human IgG1, V domains shown, Derived as m2; Engineered human IgG1) VH: EVQLVESGGGLVQPGGSLRLSCAASGFTFSPFAMSWVRQAPGKGLEWVAKVSPGGSWTYYSDTVTDRFTFSLDTSKSTAYLQMNSLRAEDTAVYYCARQLWGYYALDIWGQGTLVTVSS VL: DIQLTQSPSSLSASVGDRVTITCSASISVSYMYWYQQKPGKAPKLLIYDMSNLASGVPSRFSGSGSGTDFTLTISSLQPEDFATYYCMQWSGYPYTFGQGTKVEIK"
property_name = "kon"
recorded_value = "1.81e+06 M⁻¹ s⁻¹"

[[record]]
binder = "anti-IL-6 antibody, heavy chain I51P, G66D / light chain WT (antibody, human IgG1, V domains shown, Derived as m2; Engineered human IgG1) VH: EVQLVESGGGLVQPGGSLRLSCAASGFTFSPFAMSWVRQAPGKGLEWVAKPSPGGSWTYYSDTVTDRFTFSLDTSKSTAYLQMNSLRAEDTAVYYCARQLWGYYALDIWGQGTLVTVSS VL: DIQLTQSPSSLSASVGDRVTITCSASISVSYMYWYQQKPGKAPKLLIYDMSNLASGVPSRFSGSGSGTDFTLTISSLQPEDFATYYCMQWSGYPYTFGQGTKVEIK"
property_name = "kon"
recorded_value = "15800 M⁻¹ s⁻¹"


IN: Give the measured kon of anti-IL-6 antibody, heavy chain S35Q, G66D / light chain WT (antibody, human IgG1, V domains shown, Derived as m2; Engineered human IgG1) VH: EVQLVESGGGLVQPGGSLRLSCAASGFTFSPFAMQWVRQAPGKGLEWVAKISPGGSWTYYSDTVTDRFTFSLDTSKSTAYLQMNSLRAEDTAVYYCARQLWGYYALDIWGQGTLVTVSS VL: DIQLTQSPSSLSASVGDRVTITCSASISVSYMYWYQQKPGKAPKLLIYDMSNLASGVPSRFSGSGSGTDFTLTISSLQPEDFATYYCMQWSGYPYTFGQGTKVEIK .
OUT: 1.31e+06 M⁻¹ s⁻¹
